The molecules below each have a reported IC50 tested on MAP4K4 (Homo sapiens); the values come from various publications.

> print(dat)
                            compound.smiles            test.target  endpoint.name  experimental.value
1                Cc1[nH]c2ncccc2c1-c1ccncc1  MAP4K4 (Homo sapiens)           IC50             ≤ 10 µM
2  O=C(Nc1c(O)cncc1F)c1ccc(-c2c(-c3ccc(F)cc3)ncn2C2COC2)o1  MAP4K4 (Homo sapiens)           IC50             6.87 µM
3  CCS(=O)(=O)Nc1ccc(F)c(C(=O)c2c[nH]c3ncc(-c4cccnc4)cc23)c1F  MAP4K4 (Homo sapiens)           IC50             ≤ 10 µM
4  Cc1nc(CNc2nc(Cl)c(Cc3c[nH]c4ncc(Cl)cc34)s2)cs1  MAP4K4 (Homo sapiens)           IC50              < 1 µM
5  Cn1cc(-c2cnc3[nH]cc(Cc4ccc(NCc5ccc(C(F)(F)F)nc5)nc4Cl)c3c2)cn1  MAP4K4 (Homo sapiens)           IC50              < 1 µM

Q. IC50 of "CCCS(=O)(=O)Nc1ccc(F)c(C(=O)c2c[nH]c3ncc(-c4ccc(OCCCN5CCOCC5)nc4)cc23)c1F" on MAP4K4 (Homo sapiens)?
A. ≤ 10 µM

Q. For MAP4K4 (Homo sapiens), provide IC50 of "CCCS(=O)(=O)Nc1ccc(F)c(C(=O)c2c[nH]c3ncc(-c4nn[nH]n4)cc23)c1F" please.
A. ≤ 10 µM

Q. Any idea what IC50 came out for "CCc1cccc(C)c1NC(=O)c1ccc(-c2c(-c3ccc(F)cc3)ncn2C2CCCC2)o1" on MAP4K4 (Homo sapiens)?
A. > 1 µM

---

Before we begin, note that these IC50 values for MAP4K4 (Homo sapiens, UniProt O95819) originate from several publications.

Recorded IC50, per entry:
> print(dat)
                                   molecule  experimental.value
1  COc1ccnc2[nH]cc(C(=O)c3c(F)ccc(NS(=O)(=O)c4cccc(F)c4)c3F)c12          ≤ 10000 nM
2  O=C(Nc1ccc(F)cc1F)c1ccc(-c2c(-c3ccc(F)cc3)ncn2C2CCCC2)o1             97.6 nM
3  CS(=O)(=O)Nc1ccc(F)c(C(=O)c2c[nH]c3ncc(-c4cccnc4)cc23)c1F          ≤ 10000 nM
4  COc1cc(OC)cc(C(=O)c2c[nH]c3ncc(-c4ccccc4)cc23)c1          ≤ 10000 nM
5               c1ccc(Cc2c[nH]c3ncccc23)cc1          ≤ 10000 nM

Q. Could you share which IC50 value was measured for COc1cnccc1NC(=O)c1ccc(-c2c(-c3ccc(F)cc3)ncn2CC2CCOC2)o1 (centres unmarked) ?
A. 50.3 nM

Q. Name the reported IC50 value associated with the molecule "Cc1cnc2[nH]cc(C(=O)c3cc(NS(=O)(=O)c4cccnc4)ccc3F)c2c1"
A. ≤ 10000 nM

Q. IC50 for "COc1cnc2[nH]cc(C(=O)c3cccc(NS(=O)(=O)C4CCCCC4)c3)c2c1" ?
A. ≤ 10000 nM

Q. Could you tell me which IC50 is on file for "CC(=O)c1cccc(NC(=O)c2ccc(-c3c(-c4ccc(F)cc4)ncn3C3CCCC3)o2)c1" ?
A. 274 nM

Q. May I ask what IC50 has been recorded for "O=C(Nc1ccccc1F)c1ccc(-c2c(-c3ccncc3)ncn2C2CCCC2)o1" ?
A. 566 nM

Q. Requested read-out: IC50. Entry: "O=C(c1cccc(NS(=O)(=O)c2cccnc2)c1)c1c[nH]c2ncc(F)cc12"
A. ≤ 10000 nM

---

Here is a set of compounds with reported IC50 for UniProt:O95819, compiled from the literature.

Observe how each entry below is paired with its result.
> print(dat)
                                   compound  endpoint.name  experimental.value
1  O=C(Nc1ccncc1F)c1ccc(-c2c(-c3ccc(F)cc3)ncn2[C@@H]2CCC[C@H]2O)o1 (racemic)           IC50             23.4 nM
2  C[N+]1([O-])CCN(c2ccc(NC(=O)c3c[nH]c(-c4c(-c5ccc(F)cc5)ncn4CC(F)(F)F)n3)cc2)CC1           IC50            > 120 nM
3  CCCCS(=O)(=O)Nc1ccc(F)c(C(=O)c2c[nH]c3ncc(-c4cnn(C)c4)cc23)c1           IC50          ≤ 10000 nM
4  CCCS(=O)(=O)Nc1ccc(F)c(C(=O)c2c[nH]c3ncc(-c4cnc(C)nc4)cc23)c1F           IC50          ≤ 10000 nM
5  COc1ccc2[nH]c(C(=O)c3ccc4[nH]ccc4c3)c(C)c2c1           IC50              300 nM
6  Cc1ccc(C)c(NC(=O)c2ccc(-c3c(-c4ccc(F)cc4)ncn3C3CCCC3)o2)c1           IC50              457 nM
7  CCC(C)S(=O)(=O)Nc1ccc(F)c(C(=O)c2c[nH]c3ncc(Cl)cc23)c1F (centres unmarked)           IC50          ≤ 10000 nM

From here, focus on the item given below.
Q. What value of IC50 on UniProt:O95819 does "CC(C)S(=O)(=O)Nc1ccc(F)c(C(=O)c2c[nH]c3ncc(Cl)cc23)c1F" have?
A. ≤ 10000 nM

---

pIC50: −log10 of the molar value.
Consider the following pIC50 data for MAP4K4 (Homo sapiens), collected from several reports.

Recorded pIC50, per entry:
> print(dat)
                            compound.smiles  experimental.value
1  CCCS(=O)(=O)Nc1ccc(F)c(C(=O)c2c[nH]c3ncc(OCCOC)cc23)c1F              ≥ 5.00
2  COc1cncc(CNc2nc(Cl)c(Cc3c[nH]c4ncc(Cl)cc34)s2)c1              > 6.00
3  NC(=O)c1ccc(-c2c(CN3CCOCC3)[nH]c3ncccc23)cc1              ≥ 5.00
4  CCCS(=O)(=O)Nc1cccc(C(=O)c2c[nH]c3ncc(-c4cnc(N(C)C)nc4)cc23)c1F              ≥ 5.00

Next up:
Q. Suppose we examine the molecule "CCCS(=O)(=O)Nc1ccc(F)c(C(=O)c2c[nH]c3ncc(CCCOC)cc23)c1F" ; what pIC50 value has been reported?
A. ≥ 5.00

---

The entries below pair compounds with IC50 values for MAP4K4 (Homo sapiens, UniProt O95819), as found in several publications.

Sample answers from the record:
> print(dat)
                                   compound  experimental.value
1  CN1CCN(c2ccc(NC(=O)c3c[nH]c(-c4c(-c5ccc(F)cc5)ncn4[C@H]4CC[C@H](O)CC4)n3)cc2)CC1    0.012 to 0.12 µM
2  O=C(Nc1ccc(Cl)cc1F)c1ccc(-c2c(-c3ccc(F)cc3)ncn2C2CCCC2)o1           0.0413 µM
3  O=C(O)c1ccc(F)c(C(=O)c2c[nH]c3ncc(-c4cccnc4)cc23)c1F             ≤ 10 µM
4  CC(C)n1cnc(-c2ccc(F)c(F)c2)c1-c1nc(C(=O)Nc2ccc(N3CCN(CCO)CC3)cc2)c[nH]1           > 0.12 µM
5  O=C(c1c(F)ccc(NS(=O)(=O)N2CCCC2)c1F)c1c[nH]c2ncc(Cl)cc12             ≤ 10 µM
6  Cc1ccc(NC(=O)c2ccc(-c3c(-c4ccc(F)cc4)ncn3C3CCCCC3)o2)c(C)c1            0.247 µM
7  CC(C)n1cnc(-c2ccc(Cl)cc2)c1-c1nc(C(=O)Nc2ccc(N3CCN(CCO)CC3)cc2)c[nH]1           > 0.12 µM
8  Cc1cnc2[nH]cc(C(=O)c3cccc(NS(=O)(=O)c4cccnc4)c3)c2c1             ≤ 10 µM

Q. # value lookup — system MAP4K4 (Homo sapiens, UniProt O95819), readout IC50, item "Fc1ccc(CNc2nc(Cl)c(Cc3c[nH]c4ncc(Cl)cc34)s2)nc1"
A. < 1 µM

Q. I'm curious: which IC50 was measured for "CCS(=O)(=O)Nc1ccc(F)c(C(=O)c2c[nH]c3ncc(-c4ccc(Cl)cc4)cc23)c1F" tested on MAP4K4 (Homo sapiens, UniProt O95819)?
A. ≤ 10 µM

Q. Which measured IC50 belongs to "Cc1cnc2[nH]cc(C(=O)c3c(F)ccc(NS(=O)(=O)C4CCC4)c3F)c2c1" , tested on MAP4K4 (Homo sapiens, UniProt O95819)?
A. ≤ 10 µM

Q. Lab note: need IC50 with MAP4K4 (Homo sapiens, UniProt O95819) for entry "CCS(=O)(=O)Nc1ccc(F)c(C(=O)c2c[nH]c3ncc(Cl)cc23)c1F" , please look it up.
Sequence (O95819 whole entry): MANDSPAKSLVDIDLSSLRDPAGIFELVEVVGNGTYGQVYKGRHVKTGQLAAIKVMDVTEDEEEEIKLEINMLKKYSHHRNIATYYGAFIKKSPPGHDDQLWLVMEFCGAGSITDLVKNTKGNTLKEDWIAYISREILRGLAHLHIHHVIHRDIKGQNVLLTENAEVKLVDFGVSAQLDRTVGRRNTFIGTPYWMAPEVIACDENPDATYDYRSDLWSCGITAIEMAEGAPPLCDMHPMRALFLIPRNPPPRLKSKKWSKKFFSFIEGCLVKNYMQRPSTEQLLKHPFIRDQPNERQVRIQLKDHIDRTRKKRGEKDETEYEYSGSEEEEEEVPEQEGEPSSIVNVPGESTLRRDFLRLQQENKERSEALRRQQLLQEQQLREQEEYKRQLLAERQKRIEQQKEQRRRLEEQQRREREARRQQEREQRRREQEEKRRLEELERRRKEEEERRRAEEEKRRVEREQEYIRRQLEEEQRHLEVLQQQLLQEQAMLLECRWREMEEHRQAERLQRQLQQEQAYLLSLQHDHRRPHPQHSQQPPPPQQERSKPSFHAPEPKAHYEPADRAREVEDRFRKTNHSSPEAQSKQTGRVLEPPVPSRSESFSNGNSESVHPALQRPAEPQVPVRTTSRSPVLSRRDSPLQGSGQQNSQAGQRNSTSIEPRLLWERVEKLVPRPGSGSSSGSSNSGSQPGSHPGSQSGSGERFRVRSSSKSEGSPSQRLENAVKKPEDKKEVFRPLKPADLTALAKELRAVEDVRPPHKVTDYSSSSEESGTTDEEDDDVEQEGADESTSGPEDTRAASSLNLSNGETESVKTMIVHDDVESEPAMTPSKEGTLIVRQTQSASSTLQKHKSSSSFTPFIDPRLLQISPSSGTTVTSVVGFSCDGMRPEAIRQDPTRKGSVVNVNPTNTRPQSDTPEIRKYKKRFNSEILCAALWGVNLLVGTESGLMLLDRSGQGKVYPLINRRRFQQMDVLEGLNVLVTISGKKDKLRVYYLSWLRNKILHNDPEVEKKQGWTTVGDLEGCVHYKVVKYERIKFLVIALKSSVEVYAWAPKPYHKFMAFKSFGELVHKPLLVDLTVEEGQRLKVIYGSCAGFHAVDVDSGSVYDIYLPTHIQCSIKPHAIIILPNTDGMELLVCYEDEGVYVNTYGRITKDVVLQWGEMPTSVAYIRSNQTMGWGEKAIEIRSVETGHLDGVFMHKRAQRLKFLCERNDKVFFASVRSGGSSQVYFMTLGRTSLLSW
A. ≤ 10 µM

Q. Give MAP4K4 (Homo sapiens, UniProt O95819) IC50 for "COc1cccc(Cc2c[nH]c3ncc(-c4ccsc4)cc23)n1"
A. ≤ 10 µM

Q. Any idea what IC50 came out for "CS(=O)(=O)Nc1ccc(F)c(C(=O)c2c[nH]c3ncc(Cl)cc23)c1F" on MAP4K4 (Homo sapiens, UniProt O95819)?
A. ≤ 10 µM

Q. Hi! What's the reported IC50 for "Cc1cnc2[nH]cc(C(=O)c3c(F)ccc(NS(=O)(=O)c4cc(F)ccc4F)c3F)c2c1" on MAP4K4 (Homo sapiens, UniProt O95819)?
A. ≤ 10 µM

Q. Notebook: pull reported IC50 for MAP4K4 (Homo sapiens, UniProt O95819), entry "CCCS(=O)(=O)Nc1ccc(F)c(C(=O)c2c[nH]c3ncc(-c4ccc(C#CCN(CC)CC)nc4)cc23)c1F"
A. ≤ 10 µM
